Test: Thermodynamic solubility in simulated intestinal fluid (TS in FaSSIF)
Format: physicochemical
Conditions: thermodynamic from solid, 37° C.
Each entry falls in a class defined on solubility thermodynamic at 4 h; the bands are band 1 (below 60 µg/mL), band 2 (60 µg/mL to below 200 µg/mL), band 3 (200 µg/mL or more)

Query string: Quick check: band for COc1cc2nnc(-c3cc(C)on3)n2nc1OCc1cc(OC2COC2)cnn1
Result string: band 2

Query string: Note: place this compound into its band. Item: COCCOCc1ccc(COc2nn3c(-c4cc(C)on4)nnc3cc2OC)nn1
Result string: band 3

Query string: Category of COc1cc2nnc(-c3cc(C)on3)n2nc1OCc1ncnn1C , please.
Result string: band 2

Query string: Class (by measured solubility thermodynamic at 4 h) for CCN1CCC(c2cccc(COc3nn4c(-c5cc(C)on5)nnc4cc3OC)n2)CC1
Result string: band 3

Query string: Which category does the recorded solubility thermodynamic at 4 h put COCCN1CCc2nc(COc3nn4c(-c5cc(C)on5)nnc4cc3OC)ccc2C1=O in?
Result string: band 1

Query string: Please classify: CCN1Cc2ccc(COc3nn4c(-c5cc(C)on5)nnc4cc3OC)nc2C1
Result string: band 2

Query string: Would you mind sorting COc1cc2nnc(-c3cc(C)on3)n2nc1OCc1ccc(OC2CC3(COC3)C2)nn1 into the appropriate category?
Result string: band 1

Query string: The entry to classify is CCN1Cc2ccc(COc3nn4c(-c5cc(C)on5)nnc4cc3OC)nc2C1=O ; which class holds it?
Result string: band 2

Query string: Class for COc1cc2nnc(-c3cc(C)on3)n2nc1OCc1ccc(OC2COC2)nn1 ?
Result string: band 2

Query string: Lab note: which band did COc1cc2nnc(-c3cc(C)on3)n2nc1OCc1ccc2c(n1)CN(C)C2 land in?
Result string: band 3

Query string: Lab log: COCCn1cccc(COc2nn3c(-c4cc(C)on4)nnc3cc2OC)c1=O — assign solubility thermodynamic at 4 h category
Result string: band 1

Query string: Using the reported solubility thermodynamic at 4 h, which band applies to COCCN1Cc2nc(COc3nn4c(-c5cc(C)on5)nnc4cc3OC)ccc2C1=O ?
Result string: band 2

Query string: Lab note: sort COc1cc2nnc(-c3cc(C)on3)n2nc1OCc1ccc2c(n1)CCN(C(CO)CO)C2 into the matching solubility thermodynamic at 4 h band.
Result string: band 3

Query string: Consider COc1cc2nnc(-c3cc(C)on3)n2nc1OCc1cnccn1 . To which solubility thermodynamic at 4 h class does it belong?
Result string: band 1

Query string: Quick check: band for COc1cc2nnc(-c3cc(C)on3)n2nc1OCc1ccc(OCCN2CCN(C)CC2)nn1
Result string: band 2
